Catalogue of pSTAT3 MFI, CD4 T cells, 100 nM (unstimulated 1887) values
Test target: T1, IL10Rα/IL2Rγ receptor (human, UniProt Q13651 22-578; P31785 23-369)
T1 sequence (looked up) 1: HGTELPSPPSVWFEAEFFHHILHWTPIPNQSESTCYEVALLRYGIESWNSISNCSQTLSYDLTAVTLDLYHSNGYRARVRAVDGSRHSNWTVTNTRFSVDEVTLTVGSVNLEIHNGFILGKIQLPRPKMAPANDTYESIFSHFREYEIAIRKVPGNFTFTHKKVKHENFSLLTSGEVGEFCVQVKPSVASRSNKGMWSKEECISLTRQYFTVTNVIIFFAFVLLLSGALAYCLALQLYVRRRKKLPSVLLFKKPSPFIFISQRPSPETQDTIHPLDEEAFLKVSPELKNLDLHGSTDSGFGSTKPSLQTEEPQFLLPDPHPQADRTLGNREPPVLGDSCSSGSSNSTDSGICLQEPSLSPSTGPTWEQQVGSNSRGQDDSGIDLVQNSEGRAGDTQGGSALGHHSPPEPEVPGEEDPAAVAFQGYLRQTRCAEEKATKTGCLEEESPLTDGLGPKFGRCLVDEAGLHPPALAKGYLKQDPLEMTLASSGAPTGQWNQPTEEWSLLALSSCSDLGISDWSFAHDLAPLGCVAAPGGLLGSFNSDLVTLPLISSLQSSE
T1 sequence (looked up) 2: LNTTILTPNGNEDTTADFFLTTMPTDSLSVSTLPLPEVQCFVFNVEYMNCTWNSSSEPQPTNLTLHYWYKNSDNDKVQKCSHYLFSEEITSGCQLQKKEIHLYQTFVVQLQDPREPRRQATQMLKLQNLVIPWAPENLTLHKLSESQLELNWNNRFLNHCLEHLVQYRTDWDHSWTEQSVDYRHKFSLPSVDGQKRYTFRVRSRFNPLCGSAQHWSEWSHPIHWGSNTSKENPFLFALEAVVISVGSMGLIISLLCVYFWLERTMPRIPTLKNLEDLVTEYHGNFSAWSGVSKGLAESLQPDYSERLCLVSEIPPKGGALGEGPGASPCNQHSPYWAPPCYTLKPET
Method notes: cell-based or functional assay
Write the number in MFI without appending the unit.

- DR465(DR240-DR231) (bispecific antibody) QVQLQESGGGSVQAGGSLRLSCGASGYTYSSYCMGWFRQVPGKEREGVAVIDSDGSTSYADSVKGRFTISKDNGKNTLYLQMNSLKPEDTAMYYCAADLGHYRPPCGVLYLGMDYWGKGTQVTVSSGGGSQVQLQESGGGSVQAGGSLRLSCTASGFTFDDREMNWYRQAPGNECELVSTISSDGSTYYADSVKGRFTISQDNAKNTVYLQMDSVKPEDTAVYYCAADFMIAIQAPGAGCWGQGTQVTVSSASHHHHHH: 7070
- DR471(DR241-DR231) (bispecific antibody) QVQLQESGGGSVQAGGSLRLSCAASGYSNCSYDMTWYRQAPGKEREFVSAIHSDGSTRYADSVKGRFFISQDNAKNTVYLQMNSLKPEDTAMYYCKTDPLHCRAHGGSWYSVRANYWGQGTQVTVSSGGGSQVQLQESGGGSVQAGGSLRLSCTASGFTFDDREMNWYRQAPGNECELVSTISSDGSTYYADSVKGRFTISQDNAKNTVYLQMDSVKPEDTAVYYCAADFMIAIQAPGAGCWGQGTQVTVSSASHHHHHH: 6200
- DR441(DR236-DR231) (bispecific antibody) QVQLQESGGGSVQAGGSLRLSCAASRFTYSSYCMGWFRQAPGKEREGVASIDSDGSTSYTDSVKGRFTISKDNAKNTLYLQMNSLKPEDTAMYYCALDLMSTVVPGFCGFLLSAGMDYWGKGTQVTVSSGGGSQVQLQESGGGSVQAGGSLRLSCTASGFTFDDREMNWYRQAPGNECELVSTISSDGSTYYADSVKGRFTISQDNAKNTVYLQMDSVKPEDTAVYYCAADFMIAIQAPGAGCWGQGTQVTVSSASHHHHHH: 6350

Lab note: next binder to report on.
# input Check the records and state pSTAT3 MFI, CD4 T cells, 100 nM (unstimulated 1887) for DR395(DR229-DR239) (bispecific antibody) QVQLQESGGGLVQPGGSLRLSCTASGFSFSSYPMTWARQAPGKGLEWVSTIASDGGSTAYAASVEGRFTISRDNAKSTLYLQLNSLKTEDTAMYYCTKGYGDGTPAPGQGTQVTVSSGGGSQVQLQESGGGSVQAGGSLRLSCTVSGYTYSSNCMGWFRQAPGKEREGVATIYTGGGNTYYADSVKGRFTISQDNAKNTVYLQMNNLKPEDTAMYYCAAEPLSRVYGGSCPTPTFDYWGQGTQVTVSSASHHHHHH
# output 4670
